Please provide measured EC50 group, cGMP in GTM-3 cells for the entries that follow.
# assayedTarget: T1, natriuretic peptide receptor-B (human)
# T1 chain: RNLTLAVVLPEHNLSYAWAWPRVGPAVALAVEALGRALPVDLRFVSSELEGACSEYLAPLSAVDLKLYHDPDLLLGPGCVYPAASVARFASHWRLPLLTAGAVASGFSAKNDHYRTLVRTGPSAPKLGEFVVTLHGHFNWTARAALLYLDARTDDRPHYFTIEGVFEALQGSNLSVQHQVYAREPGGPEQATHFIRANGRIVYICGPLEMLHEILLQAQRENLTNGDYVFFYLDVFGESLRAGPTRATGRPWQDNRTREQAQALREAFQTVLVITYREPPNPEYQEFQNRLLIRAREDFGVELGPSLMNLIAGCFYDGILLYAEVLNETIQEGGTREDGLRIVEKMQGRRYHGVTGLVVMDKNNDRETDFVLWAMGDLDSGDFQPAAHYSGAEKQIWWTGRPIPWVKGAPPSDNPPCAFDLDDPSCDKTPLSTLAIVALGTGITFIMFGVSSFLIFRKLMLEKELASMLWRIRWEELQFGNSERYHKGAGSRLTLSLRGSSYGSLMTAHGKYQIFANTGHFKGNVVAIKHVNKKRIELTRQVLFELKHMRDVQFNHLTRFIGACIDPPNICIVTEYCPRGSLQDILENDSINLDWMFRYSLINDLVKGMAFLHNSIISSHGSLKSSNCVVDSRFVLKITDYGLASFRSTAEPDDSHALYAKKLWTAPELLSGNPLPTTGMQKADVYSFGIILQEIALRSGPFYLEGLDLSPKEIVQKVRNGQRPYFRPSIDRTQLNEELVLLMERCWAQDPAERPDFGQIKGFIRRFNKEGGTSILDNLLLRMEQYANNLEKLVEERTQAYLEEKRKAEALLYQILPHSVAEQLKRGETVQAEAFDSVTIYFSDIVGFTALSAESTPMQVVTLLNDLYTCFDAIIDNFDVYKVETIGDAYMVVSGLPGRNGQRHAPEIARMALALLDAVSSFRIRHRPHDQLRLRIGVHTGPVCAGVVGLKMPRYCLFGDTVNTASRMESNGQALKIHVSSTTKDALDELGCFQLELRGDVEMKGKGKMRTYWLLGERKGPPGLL
# assayOverview: cell-based or functional assay
Numbered stars: 1 amine (or outer) side, 2 acyl side, 3 side chain; on linkers, the order of the positions; unused ones are H or OH. Square brackets hold non-standard residues; d marks the D form. Ends that are not written are not given here. * marks the point of attachment. Pro(trans-4-NH2) = O=C([C@@H]1C[C@@H](N[*:3])CN1[*:1])[*:2]; Sni = (S)-nipecotic acid, O=C([C@H]1CCCN([*:1])C1)[*:2]; pT = C[C@@H](OP(=O)(O)O)[C@H](N)C(=O)O; dDap(Me2) = CN(C)C[C@@H](N)C(=O)O; Hyp = O=C(O)[C@@H]1C[C@@H](O)CN1; NMeL = CN[C@@H](CC(C)C)C(=O)O; Chg = N[C@H](C(=O)O)C1CCCCC1; Tle = CC(C)(C)[C@H](N)C(=O)O; orn(Me2) = not defined here; Octanoyl = CCCCCCCC(=O)*; Aze = O=C(O)[C@@H]1CCN1; Che = not defined here; Sbt = 5-butyl-thiazole; leu = not defined here; Occ = octanoic acid

Some binders with known EC50 group, cGMP in GTM-3 cells results, for comparison:
[[record]]
binder = "Octanoyl-[Sni]F[leu]L[Hyp][NMeL][Chg]R[Che] (reading uncertain; also: printed as Occ-Sni-Phe-leu-Leu-Hyp-Nml-Chg-Arg-Che) [JAL-1763]"
recordedmetric = "EC50 group, cGMP in GTM-3 cells"
result = "≤ 15 µM"

[[record]]
binder = "[Occ][Sni]F[orn(Me2)]L[Hyp][NMeL][pT]R[Che] (reading uncertain; also: printed as Occ-Sni-Phe-orn(Me2)-Leu-Hyp-Nml-Pth-Arg-Che) [JAL-1918]"
recordedmetric = "EC50 group, cGMP in GTM-3 cells"
result = "≤ 5 µM"

[[record]]
binder = "Octanoyl-[dA]F[dR]L[Hyp][Aze]DRI-NH2 [JAL-1393]"
recordedmetric = "EC50 group, cGMP in GTM-3 cells"
result = "≤ 15 µM"


I need EC50 group, cGMP in GTM-3 cells for every entry listed below, if you could help.
1. Octanoyl-[dA][dA]FGLK[NMeL]DRI-NH2 [JAL-0776]
2. Octanoyl-[dA]FXL[Pro(trans-4-NH2)][NMeL]DRI-NH2 (not fully specified (some residues); printed as Occ-ala-Phe-dap(6238)2-Leu-Tap-Nml-Asp-Arg-Ile-NH2) [JAL-1460]
3. Sbt-[Sni]F[dL]L[Hyp][NMeL]DRI-NH2 [JAL-1382]
4. Octanoyl-[dA]F[dD]L[Hyp]LDRI-NH2 [JAL-1048]
5. Octanoyl-[dV]FGLKLDRI-NH2 [JAL-0756]

Key:
1. ≤ 15 µM
2. ≤ 5 µM
3. ≤ 1 µM
4. ≤ 15 µM
5. ≤ 15 µM

I need EC50 group, cGMP in GTM-3 cells for every entry listed below, if you could help.
1. [Occ]AFGLPLDR[Tle]-NH2 (not fully specified (residue 2); printed as Occ-ala-Phe-Gly-Leu-Pro-Leu-Asp-Arg-Tbg-) [JAL-0989]
2. Octanoyl-[Sni]F[dDap(Me2)]L[Hyp][NMeL]VRI-NH2 [JAL-1402]

Key:
≤ 15 µM
≤ 5 µM
